Reference source for all entries: patent US20200131180A1

Biological target: human mAChR M1 (Homo sapiens)
Sequence (P11229 1-460): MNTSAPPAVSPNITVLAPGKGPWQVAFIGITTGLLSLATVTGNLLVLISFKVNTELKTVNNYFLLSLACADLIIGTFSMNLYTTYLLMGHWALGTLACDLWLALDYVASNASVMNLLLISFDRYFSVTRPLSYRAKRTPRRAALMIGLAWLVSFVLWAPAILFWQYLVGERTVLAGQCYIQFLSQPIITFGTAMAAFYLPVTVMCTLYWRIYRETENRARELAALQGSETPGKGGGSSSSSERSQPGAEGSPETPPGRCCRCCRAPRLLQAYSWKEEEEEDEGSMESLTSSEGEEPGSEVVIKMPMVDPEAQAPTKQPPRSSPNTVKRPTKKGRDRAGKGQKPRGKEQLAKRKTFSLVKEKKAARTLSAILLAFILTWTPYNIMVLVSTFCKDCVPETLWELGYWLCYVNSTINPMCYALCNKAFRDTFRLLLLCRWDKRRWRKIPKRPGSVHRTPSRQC
Assay: mAChR M1 cell-based functional assay (calcium mobilization, PAM activity)
Settings: CHO-K1 cells expressing hM1; calcium flux (Fluo-4); concentration-dependent increase in the EC20 acetylcholine response
pEC50: −log10 of the molar value.
Measurement Name: pEC50

Would you please look over these solved cases?
Cn1cc(-c2cc(F)c(Cc3cc(C(=O)N[C@H]4CCOC[C@@H]4O)c4ncnn4c3)c(F)c2)cn1 | 6.16
Cn1ccc(-c2ccc(Cc3cc(C(=O)N[C@H]4CCCC[C@@H]4O)c4nccn4c3)cn2)n1 | 6.04
Cn1ccc(-c2ccc(Cc3cc(C(=O)NC4CC5(COC5)C4)c4ncnn4c3)cc2)n1 | 5.31
O=C(N[C@H]1CCOC[C@@H]1O)c1cc(Cc2ccc(-n3cccn3)cc2)cn2ccnc12 | 6.47

(a) Cn1ccc(-c2ccc(Cc3cc(C(=O)N[C@H]4CCCC[C@@H]4O)c4nccn4c3)c(F)c2)n1
(b) Cn1cc(-c2ccc(Cc3cc(C(=O)N[C@H]4CCCC[C@@H]4O)c4ncnn4c3)c(F)c2)cn1
(c) O=C(N[C@H]1CCCC[C@@H]1O)c1cc(Cc2ccc(-n3cccn3)cc2)cn2cnnc12
Hey, quick one: sort these by pEC50, largest value first please. Please respond with the labels ordered as the question requires.
b, a, c

---

Molecular target: human mAChR M1 (Homo sapiens, UniProt P11229)
Assay: mAChR M1 cell-based functional assay (calcium mobilization, PAM activity)
Details: CHO-K1 cells expressing hM1; calcium flux (Fluo-4); potentiation of EC20 acetylcholine response
Measurement Name: Emax (%)

Would you please look over these solved cases?
O=C(NC1CCOCC1)c1cc(Cc2ccc(-n3cccn3)cc2)cn2ncnc12 | 47
Cn1ccc(-c2ccc(Cc3cc(C(=O)N[C@H]4CCOC[C@@H]4O)c4ncnn4c3)cc2)n1 | 85
Cn1cc(-c2ccc(Cc3cc(C(=O)NC4CC5(COC5)C4)c4ncnn4c3)cn2)cn1 | 65
O=C(N[C@H]1CCOC[C@@H]1O)c1cc(Cc2ccc(-n3cccn3)cc2)cn2ccnc12 | 82
Cn1ccc(-c2ccc(Cc3cc(C(=O)NC4CCOCC4)c4ncnn4c3)cc2)n1 | 53

(P) Cn1cc(-c2ccc(Cc3cc(C(=O)N[C@H]4CCCC[C@@H]4O)c4nccn4c3)c(F)c2)cn1
(Q) Cn1cc(-c2ccc(Cc3cc(C(=O)NC4CCOCC4)c4ncnn4c3)cn2)cn1
Between the two listed entries P and Q , which has its Emax at the higher number? // output: label of the selected item
P
